Taken from patent US20250051467A1.

Record form. Attribute: koff. Fill in for each entry.
- studySystem: T1, h-FAP-His (human, UniProt Q12884 26-760)
- T1 construct: range 26-760; Bought recombinant protein with a His tag; also called human FAP-His protein; FAP recombinant protein with a His tag
- T1 sequence (Q12884 26-760 limits assumed): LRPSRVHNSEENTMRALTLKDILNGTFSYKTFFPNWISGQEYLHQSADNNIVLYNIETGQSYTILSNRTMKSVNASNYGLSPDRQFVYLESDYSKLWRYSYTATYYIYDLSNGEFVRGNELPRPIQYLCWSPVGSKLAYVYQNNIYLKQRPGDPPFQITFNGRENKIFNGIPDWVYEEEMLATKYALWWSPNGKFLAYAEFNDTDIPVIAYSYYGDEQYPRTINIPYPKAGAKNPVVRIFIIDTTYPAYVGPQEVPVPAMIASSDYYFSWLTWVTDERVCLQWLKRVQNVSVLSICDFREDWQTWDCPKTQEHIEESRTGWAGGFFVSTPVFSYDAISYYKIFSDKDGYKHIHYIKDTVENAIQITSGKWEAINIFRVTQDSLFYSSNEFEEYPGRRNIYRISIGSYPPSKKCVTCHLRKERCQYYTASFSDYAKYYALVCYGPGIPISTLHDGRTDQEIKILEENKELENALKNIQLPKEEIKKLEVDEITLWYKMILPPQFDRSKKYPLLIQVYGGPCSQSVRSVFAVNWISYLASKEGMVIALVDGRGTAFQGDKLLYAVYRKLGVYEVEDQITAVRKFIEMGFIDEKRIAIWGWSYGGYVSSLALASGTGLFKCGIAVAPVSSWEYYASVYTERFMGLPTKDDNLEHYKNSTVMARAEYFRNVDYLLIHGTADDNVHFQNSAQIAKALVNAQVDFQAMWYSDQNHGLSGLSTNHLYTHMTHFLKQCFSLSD
- protocolText: SPR, antibody captured by anti-human IgG Fc, h-FAP-His analyte

Query: Supply measured koff of Ab15 (antibody, human IgG1, kappa, L234A L235A, V domains shown, Fully human, IgG1 / kappa; also called anti-FAP antibody Ab15) VH: QMQLVQSGAEVKKPGASVTVSCRASGYSFADHFIHWVRQAPGQGFQWMGWINPNRGVTHHAQDFQGRVAMTRDMSTDTVYMELTSLRSDDTAVYYCARDESLTARPYYFYGFDVWGQGTLVTVSS VL: EIVLTQSPSSVSASVGDRVTITCRASQGISSWLAWYQQKPGKAPKSLIYAASSLQSGVPSRFSGSGSGTDFTLTISSLQPEDFATYYCQQANSFPPTFGGGTKVEIKR in your reply.
Result: 0.000105 s⁻¹

Query: Supply measured koff of Ab10 (antibody, human IgG1, kappa, L234A L235A, V domains shown, Fully human, IgG1 / kappa; also called anti-FAP antibody Ab10; Ab110) VH: QVQLQQSGVEVKKPGASVTVSCRASGYSFADHFIHWVRQAPGQGFQWMGWINPNRGVTHHAQDFQGRVAMTRDMSTDTVYMELTSLRSDDTAVYYCARDASLTARPYYFYGFDVWGQGTLVTVSS VL: DIQMTQSPSSVSASVGDRVTITCRASQGISSWLAWYQQKPGKAPKLLIYAASSLQSGVPSRFSGSGSGTDFTLTISSLQPEDFATYYCQQANSFPPAFGQGTKVEIKR in your reply.
Result: 7.28e-05 s⁻¹

Query: Supply measured koff of 28H1 (antibody, V domains shown, also called control anti-FAP antibody 28H1) VH: EVQLLESGGGLVQPGGSLRLSCAASGFTFSSHAMSWVRQAPGKGLEWVSAIWASGEQYYADSVKGRFTISRDNSKNTLYLQMNSLRAEDTAVYYCAKGWLGNFDYWGQGTLVTVSS VL: EIVLTQSPGTLSLSPGERATLSCRASQSVSRSYLAWYQQKPGQAPRLLIIGASTRATGIPDRFSGSGSGTDFTLTISRLEPEDFAVYYCQQGQVIPPTFGQGTKVEIK in your reply.
Result: 0.000255 s⁻¹

Query: Supply measured koff of Ab14 (antibody, human IgG1, kappa, L234A L235A, V domains shown, Fully human, IgG1 / kappa; also called anti-FAP antibody Ab14; Ab114) VH: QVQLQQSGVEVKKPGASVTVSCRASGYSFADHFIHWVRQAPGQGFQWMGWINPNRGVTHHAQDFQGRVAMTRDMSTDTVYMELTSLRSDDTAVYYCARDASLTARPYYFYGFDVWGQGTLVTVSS VL: EIVLTQSPSSVSASVGDRVTITCRASQGISSWLAWYQQKPGKAPKLLIYAASSLQSGVPSRFSGSGSGTDFTLTISSLQPEDFATYYCQQANSFPLTFGGGTKVEIKR in your reply.
Result: 0.000121 s⁻¹
